- target.system: T1, human IL-1α (human, UniProt P01583 113-271)
- T1 sequence (looked up): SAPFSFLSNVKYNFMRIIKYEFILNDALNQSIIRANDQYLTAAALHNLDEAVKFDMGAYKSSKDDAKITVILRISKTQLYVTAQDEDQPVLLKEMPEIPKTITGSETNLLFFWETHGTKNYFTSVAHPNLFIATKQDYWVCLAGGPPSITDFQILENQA
- experiment.description: cell-based or functional assay
property.name: ND50 (nM)
The reply should contain only the number, in nM.

// solved cases for ND50 follow
[
  {
    "binder": "ABT1-95-184 (other) VL: DIQMTQSPSSLSASVGDRVTITCRASRTPVRNLRWYQQKPGKAPKLLIYSRSYLEPGVPSRFSGSGSGTDFTLTISSLQPEDFATYHCLQGYRWPPTFGQGTKVEIKR",
    "ND50 (nM)": 0.006
  },
  {
    "binder": "ABT1-95-163 (other) VL: DIQMTQSPSSLSASVGDRVTITCRASRPIVRNLRWYQQKPGKAPKLLIYSSSYLEPGVPSRFSGSGSGTDFTLTISSLQPEDFATYHCQQGYRWPVTFGQGTKVEIKR",
    "ND50 (nM)": 0.05
  },
  {
    "binder": "ABT1-95-51 (other) VL: DIQMTQSPSSLSASVGDRVTITCRASQPIIRNLRWYQQKPGKAPKLLIYSSSYLEPGVPSRFSGSGSGTDFTLTISSLQPEDFATYHCQQGYRWPVTFGQGTKVEIKR",
    "ND50 (nM)": 615
  },
  {
    "binder": "ABT1-95-172 (other) VL: DIQMTQSPSSLSASVGDRVTITCRASRPIVRNLRWYQQKPGKAPKLLIYAVSYLEPGVPSRFSGSGSGTDFTLTISSLQPEDFATYHCQQGYRWPVTFGQGTKVEIKR",
    "ND50 (nM)": 0.171
  },
  {
    "binder": "ABT1-95-26 (other, VK dAb) VL: DIQMTQSPSSLSASVGDRVTITCRASQPIVRNLRWYQQKPGKAPKLLIYSSSYLEPGVPSRFSGSGSGTDFTLTISSLQPEDFATYYCGQGYRWPVTFGQGTKVEIKR",
    "ND50 (nM)": 0.71
  },
  {
    "binder": "ABT1-163 (other, VK dAb) VL: DIQMTQSPSSLSASVGDRVTITCRASGNIVHNLRWYQQKPGKAPKLLIYAASRLQSGVPSRFSGSGSGTDFTLTISSLQPEDFATYYCAQGYEWPLTFGQGTKVEIKQ",
    "ND50 (nM)": 105
  },
  {
    "binder": "ABT1-20 (other) VH: EVQLLETGGGLVQPGGSLRLSCAASGFTFTPYRMGWVRQAPGKGLEWVSHIGIWGANTYYADSVKGRFTISRDNSKNTLYLQMNSLRAEDTAVYYCAKHPRPFDYWGQGTLVTVSS",
    "ND50 (nM)": 1000
  },
  {
    "binder": "ABT1-95-161 (other, VK dAb) VL: DIQMTQSPSSLSASVGDRVTITCRASQPIVRNLRWYQQKPGKAPKLLIYSSSYLEPGVPSRFSGSGSGTDFTLTISSLQPEDFATYHCQQGYRWPPTFGQGTKVEIKR",
    "ND50 (nM)": 0.5
  }
]

Query binder follows.
Quick one: ND50 of ABT1-95-22 (other, VK dAb) VL: DIQMTQSPSSLSASVGDRVTITCRASQPIVRNLRWYQQKPGKAPKLLIYSSSYLEPGVPSRFSGSGSGTDFTLTISSLQPEDFATYYCQQGYHWPVTFGQGTKVEIKR ? 1

Origin of the recorded values: patent US20090291081A1
